Entry source: patent US20260007601A1

test system: female BALB/C mice; experiment: Mouse in vivo imaging of Fluc-mRNA LNP formulations; design: unit not given here; details: 6 h; 10 μg Fluc-mRNA LNP intramuscularly
Endpoint Name: average radiation intensity (mRNA expression)
The answer should be written as a number, with no unit following it.

Inquiry: Which average radiation intensity (mRNA expression) reading was recorded for the compound CCCCCCCCCCCOC(=O)CCCCCN(CCCCCCCC(=O)OCC(CCCCCCCC)CCCCCCCC)CCN(C)CCO [YK-202] ?
Reply text: 2935500

Inquiry: Which average radiation intensity (mRNA expression) reading was recorded for the compound CCCCCCCCC(CCCCCC)C(=O)OCCCCCCN(CCCCO)CCCCCCOC(=O)C(CCCCCC)CCCCCCCC (stereo not shown) [ALC-0315, reference compound] ?
Reply text: 842355

Inquiry: Which average radiation intensity (mRNA expression) reading was recorded for the compound CCCCCCCCCCCOC(=O)CCCCCN(CCO)CCCCCCCC(=O)OC(CCCCCCCC)CCCCCCCC [SM-102, reference compound] ?
Reply text: 678870

Inquiry: Which average radiation intensity (mRNA expression) reading was recorded for the compound CCCCCCCCCCOC(=O)CCCN(CCCCCC(=O)OCCC(CCCCCC)CCCCCC)CCOC(=O)SCCCN(C)C [YK-217] ?
Reply text: 24585

Inquiry: Which average radiation intensity (mRNA expression) reading was recorded for the compound CCCCCCCCCCCOC(=O)CCCCCN(CCCCCCCC(=O)OC(CCCCCCC)CCCCCCC)CCN(C)CCO [YK-206] ?
Reply text: 2068900

Inquiry: Which average radiation intensity (mRNA expression) reading was recorded for the compound CCCCCCCCCCCOC(=O)CCCCCN(CCCCCCCC(=O)OC(CCCCCCCC)CCCCCCCC)CCN(CC)CCO [YK-204] ?
Reply text: 35245

Inquiry: Which average radiation intensity (mRNA expression) reading was recorded for the compound CCCCCCCCCCCCC(O)CN(C)CCCCCC(=O)OCC(CCCCCC)CCCCCCCC (stereo not shown) [HHMA, reference compound] ?
Reply text: 638870

---

assay: Encapsulation rate, drug loading concentration and total RNA concentration detection (RiboGreen); assay type: physicochemical
Endpoint Name: drug loading concentration, times that of ALC-0315
Please append the unit to your numeric answer.

Inquiry: Which drug loading concentration, times that of ALC-0315 reading was recorded for the molecule CCCCCCCCC(CCCCCCCC)COC(=O)CCCCCN(CCCCCC(=O)OCC(CCCCCCCC)CCCCCCCC)CCN(C)CCO ?
Reply text: 1.60 times

Inquiry: Which drug loading concentration, times that of ALC-0315 reading was recorded for the molecule CCCCCCCCCCCOC(=O)CCCCCN(CCCCCCCC(=O)OCC(CCCCCCCC)CCCCCCCC)CCN(C)CCO ?
Reply text: 1.42 times

Inquiry: Which drug loading concentration, times that of ALC-0315 reading was recorded for the molecule CCCCCCCCCCCOC(=O)CCCCCN(CCCCCCCC(=O)OC(CCCCCCCC)CCCCCCCC)CCN(C)CCO ?
Reply text: 1.55 times

Inquiry: Which drug loading concentration, times that of ALC-0315 reading was recorded for the molecule CCCCCCCCCCCOC(=O)CCCCCN(CCCCCCCC(=O)OC(CCCCCCC)CCCCCCC)CCN(C)CCO ?
Reply text: 1.46 times

Inquiry: Which drug loading concentration, times that of ALC-0315 reading was recorded for the molecule CCCCCCCCCCOC(=O)CCCN(CCCCCC(=O)OCC(CCCCCCCC)CCCCCCCC)CCN(C)CCO ?
Reply text: 1.52 times
